- tgt: APOL1 (Homo sapiens, UniProt O14791)
- Sequence (O14791 1-398 S342G/I384M): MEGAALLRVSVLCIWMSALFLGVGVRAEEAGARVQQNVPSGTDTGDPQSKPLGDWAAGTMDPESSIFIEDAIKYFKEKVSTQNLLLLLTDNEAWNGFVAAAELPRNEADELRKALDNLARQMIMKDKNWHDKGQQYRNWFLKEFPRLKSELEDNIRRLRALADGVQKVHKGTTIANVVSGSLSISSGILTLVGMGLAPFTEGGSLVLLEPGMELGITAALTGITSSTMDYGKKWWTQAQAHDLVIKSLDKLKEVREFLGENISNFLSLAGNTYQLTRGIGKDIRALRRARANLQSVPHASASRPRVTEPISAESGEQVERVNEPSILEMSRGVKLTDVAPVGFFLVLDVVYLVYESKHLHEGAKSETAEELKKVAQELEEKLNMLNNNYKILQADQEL
- assay.comment: MultiTox-Fluor Multiplex Cytotoxicity Assay in tet-inducible APOL1 T-REx-HEK293 cells (cell rescue, ratio of dead to live cells)
- Format: cell-based
- conditions: tet-inducible transgenic APOL1 T-REx-HEK293 cell lines, 50 ng/mL tet, 24 hours; read-out: IP50 (i.e., IC50 for cell proliferation)
Kindly state IC50 for each of the entries shown.

Here's what some known entries look like.
Asked: What measured IC50 goes with Cc1ccc(CN2CC[C@]3(C[C@@H]2C)OCCc2cc(Cl)sc23)c(C)n1 ?
Given back: 100 to 500 nM

Asked: Entry to check: CCc1cc2c(s1)CCO[C@@]21CCN(CC(O)CC(F)(F)F)[C@@H](C)C1 (some centres unmarked) [Compound 238]
Given back: 100 to 500 nM

Asked: Entry to check: C[C@H]1C[C@@]2(CCN1Cc1cc[nH]n1)OCCc1cc(CC(F)F)sc12
Given back: < 100 nM

Asked: Entry to check: C[C@H]1C[C@@]2(CCN1Cc1cnn(C)c1)OCC(O)(c1ccccc1)c1cc(Cl)sc12 (some centres unmarked) [Compound 849]
Given back: 100 to 500 nM

Asked: Entry to check: CCc1cc2c(s1)CCOC21CCN(Cc2ccc(C(=O)NC(CO)CO)nc2)CC1
Given back: 100 to 500 nM

Asked: Entry to check: C[C@H]1C[C@@]2(CCN1Cc1cnn(CC(O)C3CCCOC3)c1)OCCc1c2sc(C(F)(F)F)c1CO (some centres unmarked)
Given back: < 100 nM

Asked: Entry to check: CCc1cc2c(s1)CCO[C@@]21CCN(Cc2cnc(NC3CNC(=O)C3)nc2)[C@@H](C)C1 (some centres unmarked)
Given back: < 100 nM

Okay, now this compound:
Asked: What measured IC50 goes with CCN1CC[C@]2(C[C@@H]1C)OCC(O)c1cc(Cl)sc12 (stereo in doubt) ?
Given back: 100 to 500 nM
